TARGET: PDLIM1, O00151
Sequence (O00151 1-87): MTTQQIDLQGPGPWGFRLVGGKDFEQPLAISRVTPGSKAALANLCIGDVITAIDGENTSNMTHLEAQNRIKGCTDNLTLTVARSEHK
EXPERIMENTAL_PROTOCOL: holdup assay
Design: key: below the threshold = too weak to quantify, mostly under pKd 3.1 to 4
MEASUREMENT_SETUP: plain residues with an end cap or a label only (N-terminal biotin on a linker: ado-ado)
ASSAY_ENDPOINT: pKd

# BINDER, RESULT
records = [
    ("VNKSKLLTDV [KCNA1, Q09470]", "below the threshold"),
    ("VKPQVSESKL [ACOT8, O14734]", "below the threshold"),
    ("VDSTVKVWTC [TRAF7, Q6Q0C0]", "below the threshold"),
    ("PDGQCTVTEV [RNF146, Q9NTX7]", "below the threshold"),
    ("SNAGNTATKA [NOSTRIN, Q8IVI9]", "below the threshold"),
    ("SAAKVLTSMC [GHRHR, Q02643]", "below the threshold"),
    ("RRRESYSTTV [EVI5, O60447]", "below the threshold"),
    ("SGSLKLMTTV [DACT1, Q9NYF0]", "below the threshold"),
    ("RRLPGKETMA [GRIK2, Q13002]", "below the threshold"),
    ("LPHGHSTTRV [NLGN4X, Q8N0W4]", "below the threshold"),
    ("QSLNRMEYIV [JAG1, P78504]", "below the threshold"),
    ("EVEEFPETSV [TRPV3, Q8NET8]", 3.6),
    ("RKPKPSSSCC [RAB9A, P51151]", "below the threshold"),
    ("QSPANIYYKV [EFNB1, P52799]", "below the threshold"),
    ("TPPAAKKSRI [BAZ1A, Q9NRL2]", "below the threshold"),
    ("EVNETDDTKM [KCNJ1, P48048]", "below the threshold"),
]
